Each recorded value in this set is attributed to PubChem BioAssay (NCI).

test: NCI Yeast Anticancer Drug Screen. Data for the sgs1 mgt1 strain (AID 161);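 also: 0% = growth of cultures given vehicle only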; details: S. cerevisiae sgs1 mgt1 strain, hits give high values; at 50.0 µM unless noted
Compounds without any hit were thinned out: in the full panel of roughly 79,000, 15% have a hit.
quantity: growth inhibition (%)
The answer is to be given in %; state only the numeric part.

Consider the worked cases shown below.
- COc1cc(/C=C/C(=O)c2c(=O)o[nH][n+]2-c2ccccc2)ccc1[O-]: 16.1
- CCOC(=O)c1cn[nH]c1C: -2.2
- CN(O)C(=O)CCC(NC(=O)CCC(N)C(=O)O)C(=O)NCC(=O)O (stereo unspecified): -11.9
- CCCOC(=O)C1C(=O)CC(c2ccccc2)C1c1ccccc1 (stereo unspecified): 1.3
- CN(C)CCCC(=O)O: -14.1

Req: Endpoint output: growth inhibition of CC(=O)[C@@]1(O)CC[C@H]2[C@@H]3CC=C4C[C@@H](Cl)CC[C@]4(C)[C@H]3CC[C@@]21C . Value?
Resp: 13.8

Req: Find the recorded growth inhibition belonging to O=c1[nH]c(=O)n(C2CC(O)C(CO)O2)cc1C#Cc1c(F)c(F)c(F)c(F)c1F (stereo unspecified) and report it.
Resp: -16.4

Req: Look up growth inhibition for this molecule: ClC(=Nc1cccc2ccccc12)N(c1ccccc1)c1ccccc1
Resp: -9.3

Req: Please look up its growth inhibition: CCOC(Nc1cc(Cl)cc(Cl)c1)C(=O)c1ccccc1 (stereo unspecified)
Resp: -9.8

Req: Can you share its growth inhibition? I mean this molecule: Cc1ccc([N+](=O)[O-])cc1N1C(=O)c2ccccc2C1=O
Resp: 12.6

Req: Requested read-out: growth inhibition. Entry: COc1cc(OC)c(C2SCC(=O)N2c2nnc(C(F)(F)F)s2)cc1OC (stereo unspecified)
Resp: 5.15

* * *

growth inhibition for assorted compounds
test: NCI Yeast Anticancer Drug Screen. Data for the bub3 strain (AID 167); conditions: S. cerevisiae bub3 mutant strain, hits give high values; at 50.0 µM unless noted
This is part of a sample that, as a whole, favours compounds with a hit. Of some 79,000 tested, about 15% had one in any assay.
Number in %, nothing else.

- Cc1ccc(C(=O)/C=C/C(=O)c2ccc(C)cc2)cc1: 14.9
- CCOC(=O)c1[nH]c(=O)[nH]c(=O)c1[N+](=O)[O-]: -11.9

Req: Give the measured growth inhibition of COC(=O)N1C=NC2C3(C)C(C)=C(C)C3(C)C21C (stereo unspecified) .
Resp: -0.4

Req: Quick check: growth inhibition of CC(=O)Nc1ccc(-c2nnc(SCC(=O)Nc3cccc([N+](=O)[O-])c3)o2)cc1 ?
Resp: -10.7

Req: Returns the measured growth inhibition for the input compound. Input: CSC(C1c2ccccc2N(c2ccc(C)cc2)c2[nH]c(=O)n(C)c(=O)c21)S(=O)(=O)c1ccc(C)cc1 (stereo unspecified)
Resp: 0.15

Req: What growth inhibition value was documented for this compound, O=[N+]([O-])c1ccccc1/C=C/c1ccccn1 ?
Resp: 41.3

Req: Which growth inhibition value belongs to CCCc1ccc(C)c(Br)c1 ?
Resp: 1.3

Req: # lookup: growth inhibition of Cc1ccc(N(C)S(=O)(=O)c2ccccc2)cc1
Resp: 22.6

Req: Which growth inhibition value is on record for C#CCN(N=O)C(=O)NCCCCC(NC(=O)OCc1ccccc1)C(=O)OCc1ccccc1 (stereo unspecified) ?
Resp: 10.3

Req: Quick check: growth inhibition of COC(=O)C1(C)CCCC2(C)C1CCC1(O)C(O)C(C(C)C)=CCC21 (stereo unspecified) ?
Resp: -1.95

Req: So what's the measured growth inhibition for this one? O=I(=O)c1ccccc1
Resp: 20.1

* * *

assay: NCI Yeast Anticancer Drug Screen. Data for the mec2-1 strain (AID 157); conditions: S. cerevisiae mec2-1 strain, hits give high values; at 50.0 µM unless noted
Compounds without any hit were thinned out: in the full panel of roughly 79,000, 15% have a hit.
Each entry gets condition not met if its growth inhibition stays under -10%, and condition met if its growth inhibition is -10% or above.

# count of solved cases: 5
* COc1ccc(CCNS(=O)(=O)c2c(C)c(C)c(C)c(C)c2C)cc1OC | condition not met
* C=CCCCCCCC=C | condition not met
* COC(=O)C1C(O)C(C)C(O)C(C)(O)/C=C/C=C(C)C(=O)Nc2c(C)c(OC(C)=O)c3c(c2O)C(=O)C(C)=C2OCOC(=C23)C(C)=CC(C)(O)C(O)C(C)C1OC(C)=O (stereo not given) | condition not met
* C1=C(N2CCCC2)C(=[N+]2CCCC2)C(N2CCCC2)=C1 | condition met
* COCCOC(=O)OCCOC | condition met

Req: Tell me whether growth inhibition is at least -10% here: O=CNCC(=O)O
Resp: condition met

Req: Check this compound for growth inhibition at or above -10%: O=C(c1ccccc1)N1c2ccc([N+](=O)[O-])cc2Sc2cc([N+](=O)[O-])ccc21
Resp: condition met

Req: // inclusive: growth inhibition at least -10%? input: O=C1NCC2(CCNCC2)N1
Resp: condition met

Req: Evaluate O=C(OCc1ccccc1)C1CCN1C(c1ccccc1)c1ccccc1 (stereo not given) : growth inhibition at minimum -10%?
Resp: condition met

Req: Tell me whether growth inhibition is at least -10% here: Nc1c(Cl)ccc2c(Cl)ccnc12
Resp: condition met

Req: Does the compound CC(C)[Si]1(C(C)C)OCC2OC(n3ccc(=O)[nH]c3=O)C([Se]c3ccccc3)C2O[Si](C(C)C)(C(C)C)O1 (stereo not given) have recorded growth inhibition that is -10% or more?
Resp: condition not met

Req: Hi, just wondering whether CC(O)CNC1=CC(=O)C(=O)c2ccccc21 (stereo not given) shows growth inhibition of -10% or higher.
Resp: condition not met

Req: Exam item: decide whether the reported growth inhibition for S=C(NC1CCCCC1)SSSSC(=S)NC1CCCCC1 is at least -10%.
Resp: condition met

Req: Answer whether growth inhibition of CC(=O)c1ccc2c(c1)NC(=O)CC(C)N2 (stereo not given) is greater than or equal to -10%.
Resp: condition met

Req: Check the entry CCN(c1ccccc1)S(=O)(=O)C(C)S(=O)(=O)N(CC)c1ccccc1 : does growth inhibition equal or exceed -10%?
Resp: condition not met

Req: Assess whether reported growth inhibition for C/C(CCC(CC(=O)O)C(C)C)=N\NC(N)=O (stereo not given) sits at -10% or higher.
Resp: condition met

Req: State whether the measured growth inhibition reaches -10%, counting equality as reaching it, for FC(F)(F)c1cc(NC(=S)SCc2ccc3c(c2)OCO3)ccc1Cl
Resp: condition met

Req: I'd appreciate it if you could say whether O=c1c2cccnc2nc2ccc3c[nH][nH]c3c12 has growth inhibition at least equal to -10%.
Resp: condition not met

Req: Exam item: decide whether the reported growth inhibition for CSc1nc(N)c(I)c(Cl)n1 is at least -10%.
Resp: condition met

Req: Does the reported growth inhibition for Brc1ccc2c(ccc3c2nnc2ncnn23)c1 fall at or above the -10% mark?
Resp: condition met

Req: Kindly determine if growth inhibition recorded for C=CCSc1cccc(C)c1 is above or exactly -10%.
Resp: condition met

Req: # bool: growth inhibition of C=CCOCn1cnc2c(N)ncnc21 >= -10%
Resp: condition not met

* * *

experiment: NCI Yeast Anticancer Drug Screen. Data for the mlh1 rad18 strain (AID 175); settings: S. cerevisiae mlh1 rad18 strain growth inhibition, hits give high values; at 50.0 µM unless noted
This is part of a sample that, as a whole, favours compounds with a hit. Of some 79,000 tested, about 15% had one in any assay.
Parameter: growth inhibition. Scope: all listed entries.
Return type: number; implicit unit %.

Examples with answers:
• O/N=C1/C2CC3CC1(c1ccccc1)CC(/C3=N/O)/C2=N\O (configuration not stated) = -4.75
• O=c1cnn2c(n1)OC1C(O)C(CO)OC12 (configuration not stated) = 22
• CCc1n[nH]c(=O)n1-n1c(C)ccc1C = -15.2

Req: # input molecule: Cc1cc(C2=NCC(C)(C)S2)ccc1O ; wanted: its growth inhibition
Resp: 29.5

Req: Reported growth inhibition for [S-]c1n[n+](-c2ccccc2)cs1 : what is it?
Resp: 3.1

Req: Please report the recorded growth inhibition for ON=C(c1ccccn1)c1ccccn1 .
Resp: 3.8

Req: Fill blank: measured growth inhibition of the molecule C/C(CC(=O)Nc1cc(C)ccc1C)=N\NC(=O)c1ccncc1 is ____.
Resp: 1.15

* * *

experiment: NCI Yeast Anticancer Drug Screen. Data for the bub3 strain (AID 167); conditions: S. cerevisiae bub3 mutant strain, hits give high values; at 50.0 µM unless noted
Compounds without any hit were thinned out: in the full panel of roughly 79,000, 15% have a hit.
quantity: growth inhibition (%)
The answer is to be given in %; state only the numeric part.

- OC1(C2(O)CCCC2)CCCC1: 18

Req: Give its growth inhibition value. Item: CCC(=O)OC(CCC1CCCO1)CCC1CCCO1 (configuration not stated)
Resp: 22.9

Req: Any idea what growth inhibition was measured for O=C(CSc1nc(-c2ccccc2)c(-c2ccccc2)[nH]1)N/N=C/c1ccc(O)cc1 ?
Resp: 5.6

Req: What value of measured growth inhibition is listed for CCCCCCCCCCCCNCCC(=O)O ?
Resp: 50.5

Req: Fill in the blank: the reported growth inhibition of CCO[C@@H]1OC(=O)[C@H]2C(c3ccccc3)=NO[C@@H]12 is ____.
Resp: 13.7

Req: Tell me the measured growth inhibition of C#CCOC(=O)c1ccccc1 , please.
Resp: 3.5

Req: If you can, please state the reported growth inhibition value of O=C(CC1SC(=Nc2ccccc2Cl)NC1=O)Nc1ccc(Cl)cc1Cl (configuration not stated) .
Resp: -6.55
